- method-notes: Metabolic stability in human HT29 cells bearing mouse plasma at 20 MBq, iv after 30 mins
- Type: ADME, organism-based, HT-29
- condition-set: read-out: Stability
test-readout: remaining at 0.5 h
Quick note: number first, unit second.

Look up remaining at 0.5 h of CS(=O)(=O)c1ccc(C2=C(c3ccc(O[11CH3])cc3)CCC2)cc1 and report it.
5%

* * *

- method-notes: Metabolic stability in Wistar rat plasma at 30 MBq, iv after 20 mins
- Assay type: ADME, organism-based
- condition-set: read-out: Stability
test-readout: remaining at 20 min (%)
# output: bare number, implied unit %

Look up remaining at 20 min of CS(=O)(=O)c1ccc(C2=C(c3ccc(O[11CH3])cc3)CCC2)cc1 and report it.
26
